src = PubChem BioAssay AID248

Listing: T/C of selected compounds
# Test system: L1210 leukemia ip in BDF1 mice, survival T/C
# Procedure details: NCI In Vivo Anticancer Drug Screen. Data for tumor model L1210 Leukemia (intraperitoneal) in B6D2F1 (BDF1) mice
# Study conditions: endpoint: mean survival time; dose: 50.0 mg/kg/injection; schedule: Q04DX002 (ip); vehicle: Klucel (hydroxypropylcellulose) (HPC); higher = longer survival
Toxic doses and inconclusive results are not listed.

| Sample smiles | T/C |
| --- | --- |
| O=Cc1cccn1Cc1cc2c(cc1[N+](=O)[O-])OCO2 | 101 % of control |
| Cc1cccc(Cl)c1OC(=O)Nc1ccccc1 | 98 % of control |
| O=C(O)c1cccc([N+](=O)[O-])c1 | 88 % of control |
| COc1ccccc1OCCOCCN(C)C1CCCCC1 | 105 % of control |

---

In this section we review reported T/C values for a set of compounds.
# System: L1210 leukemia ip in BDF1 mice, survival T/C
# Procedure details: NCI In Vivo Anticancer Drug Screen. Data for tumor model L1210 Leukemia (intraperitoneal) in B6D2F1 (BDF1) mice
# Study conditions: endpoint: mean survival time; dose: 100.0 mg/kg/injection; schedule: Q01DX001 (ip); vehicle: carboxymethylcellulose (CMC); higher = longer survival
# Method: The antitumor activity of compounds was measured in mice bearing transplantable tumors. Survival or tumor size were measured and the results are expressed as the measurement made in the treated group (T) divided by the measurement made in the vehicle treated control group (C). The tumor model used in this assay is L1210 Leukemia (intraperitoneal) in B6D2F1 (BDF1) mice
Inconclusive results and toxic doses are left out.

| Compound | T/C |
| --- | --- |
| N#CCCNC(=O)Nc1cccc2ccccc12 | 96 % of control |
| COC(=O)C1CNc2ccccc2C1=O (configuration not stated) | 92 % of control |
| CC(=O)Nc1c(Br)cc2c(c1Br)C(=O)c1cc(Br)ccc1-2 | 100 % of control |
| c1ccc2nc(OCCN3CC3)ccc2c1 | 108 % of control |
| CCCC1=NNC(=O)C1 | 100 % of control |
| CSCCC1NC(=O)C(C(C)=Nc2ccccc2)=C1O (configuration not stated) | 109 % of control |
| COc1ccc(NC(=O)Oc2ccccn2)cc1 | 97 % of control |
| O=C(c1cccs1)c1c(C(F)(F)F)oc2c(c1=O)C=CC2 | 100 % of control |
| O=c1[nH]c2ccccc2c2ccc([N+](=O)[O-])cc12 | 95 % of control |
| O=C1N(Cl)C2C(N1Cl)N(Cl)C(=O)N2Cl (configuration not stated) | 97 % of control |
| CN(N=O)c1ccc(/C=C/c2ccnc3ccccc23)cc1 | 93 % of control |
| CC(=O)c1cc(C)c(C)cc1C | 100 % of control |
| Oc1cccc2cccnc12 | 100 % of control |
| CCSC1OC(CO)C(O)C1Nc1ccc([N+](=O)[O-])cc1[N+](=O)[O-] (configuration not stated) | 94 % of control |
| O=C(CC(C(=O)c1ccccc1)N1CCN(Cc2ccccc2)CC1)c1ccccc1 (configuration not stated) | 94 % of control |
| NC(=S)N/N=C/c1ccc(-c2ccccc2)cc1 | 97 % of control |
| CCN(CC)c1nc2ccccc2o1 | 102 % of control |

---

# Tested on: L1210 leukemia ip in BDF1 mice, survival T/C
# Procedure details: NCI In Vivo Anticancer Drug Screen. Data for tumor model L1210 Leukemia (intraperitoneal) in B6D2F1 (BDF1) mice
# Study conditions: endpoint: mean survival time; dose: 25.0 mg/kg/injection; schedule: Q01DX009 (ip); vehicle: water; higher = longer survival
Inconclusive results and toxic doses are left out.
In this section, each of the compounds is paired with its reported T/C.

| Compound | T/C |
| --- | --- |
| COc1cccc2c1C(=O)c1c(OC)c(CO)cc(OC)c1C2=O | 91 % of control |
| OCCN(CCO)c1cc(OCc2ccccc2)cc(OCc2ccccc2)c1 | 94 % of control |
| CCSc1ncc2cnccn12 | 91 % of control |
| Cc1ccc(S(=O)(=O)OC2C(O)C(CO)OC2n2c(Br)c(C(N)=O)c3c(N)ncnc32)cc1 (stereo not given) | 100 % of control |
| FC(Cl)(Cl)c1nc2nc(Cl)c(Cl)nc2[nH]1 | 95 % of control |

---

# Test system: L1210 leukemia ip in BDF1 mice, survival T/C
# Procedure details: NCI In Vivo Anticancer Drug Screen. Data for tumor model L1210 Leukemia (intraperitoneal) in B6D2F1 (BDF1) mice
# Study conditions: endpoint: mean survival time; dose: 20.0 mg/kg/injection; schedule: Q01DX001 (ip); vehicle: saline; higher = longer survival
Inconclusive results and toxic doses are left out.

| Compound | T/C |
| --- | --- |
| C=Cc1nc2ccccc2[nH]1 (tested in a mixture with another compound) | 96 % of control |
| [Cl][Sn]([c]1ccccc1)([c]1ccccc1)[c]1ccccc1 | 95 % of control |
| CN(C)CCCNc1c2ccccc2nc2ccc(F)cc12 | 107 % of control |
| CNCCOC(c1ccccc1)c1ccccc1C (centres undefined) | 105 % of control |

---

Overview of recorded T/C for various compounds
# Test system: L1210 leukemia ip in BDF1 mice, survival T/C
# Procedure details: NCI In Vivo Anticancer Drug Screen. Data for tumor model L1210 Leukemia (intraperitoneal) in B6D2F1 (BDF1) mice
# Study conditions: endpoint: mean survival time; dose: 400.0 mg/kg/injection; schedule: Q01DX001 (ip); vehicle: carboxymethylcellulose (CMC); higher = longer survival
Inconclusive results and toxic doses are left out.

| Compound | T/C |
| --- | --- |
| N=C(c1ccccc1)c1ccccc1S(=O)(=O)Nc1ccccc1 | 95 % of control |
| O=C1C(Cl)=C(N2CCOCC2)C(=O)C(Cl)=C1N1CCOCC1 | 97 % of control |
| CCOC(=O)CCCc1ccc(N=NN(C)C(C)CC)cc1 (configuration not stated) | 107 % of control |
| O=C1C(=O)c2ccccc2C(O)=C1c1ccc2ccccc2c1 | 96 % of control |
| C/C(=N\N=C(N)N)c1ccc(N2CCN(c3ccc(/C(C)=N/N=C(N)N)cc3)CC2)cc1 | 100 % of control |
| CCCCCC[Si](C)(C)C | 89 % of control |
| CNc1ncnc2c1cnn2C | 106 % of control |
| CN(N=O)c1ccc(/C=C2\C=Cc3ccccc32)cc1 | 98 % of control |
| Cc1c(C(=O)O)sc2ccc([N+](=O)[O-])cc12 | 92 % of control |
| COc1ccc(/C(=C(/CC(=O)O)C(=O)OC(C)(C)C)c2cc(OC)c(OC)c(OC)c2)cc1OC | 97 % of control |
| NC1=NC(=O)/C(=C/c2ccccc2)S1 | 86 % of control |
| O=c1[nH]c2ccccc2c2ccc([N+](=O)[O-])cc12 | 93 % of control |

---

# Test system: L1210 leukemia ip in BDF1 mice, survival T/C
# Procedure details: NCI In Vivo Anticancer Drug Screen. Data for tumor model L1210 Leukemia (intraperitoneal) in B6D2F1 (BDF1) mice
# Study conditions: endpoint: mean survival time; dose: 40.0 mg/kg/injection; schedule: Q01DX001 (ip); vehicle: carboxymethylcellulose (CMC); higher = longer survival
Inconclusive results and toxic doses are left out.

| Sample smiles | Target or test system | T/C |
| --- | --- | --- |
| C[n+]1ccccc1/C=C/c1csc2ccccc12 | L1210 leukemia ip in BDF1 mice, survival T/C | 100 % of control |
| O=C1c2ccccc2C(=O)N1Nc1ccccc1 | L1210 leukemia ip in BDF1 mice, survival T/C | 111 % of control |
| O=C(CCn1cccc1)c1csc2ccccc12 | L1210 leukemia ip in BDF1 mice, survival T/C | 100 % of control |
| CS(=O)(=O)OCCCCCOS(C)(=O)=O | L1210 leukemia ip in BDF1 mice, survival T/C | 101 % of control |
| O=NN(CCO)C(=O)Nc1ccc(NC(=O)N(CCO)N=O)cc1 | L1210 leukemia ip in BDF1 mice, survival T/C | 111 % of control |

---

# Tested on: L1210 leukemia ip in BDF1 mice, survival T/C
# Procedure details: NCI In Vivo Anticancer Drug Screen. Data for tumor model L1210 Leukemia (intraperitoneal) in B6D2F1 (BDF1) mice
# Study conditions: endpoint: mean survival time; dose: 100.0 mg/kg/injection; schedule: Q01DX001 (ip); vehicle: saline with Tween-80; higher = longer survival
# Protocol: The antitumor activity of compounds was measured in mice bearing transplantable tumors. Survival or tumor size were measured and the results are expressed as the measurement made in the treated group (T) divided by the measurement made in the vehicle treated control group (C). The tumor model used in this assay is L1210 Leukemia (intraperitoneal) in B6D2F1 (BDF1) mice
Inconclusive results and toxic doses are left out.

| Compound | T/C |
| --- | --- |
| CCCCCCCCCC(C)CC1CCCCC1 (stereo not given) | 96 % of control |
| CC(C)SP(=S)(C(C)C)C(C)C | 115 % of control |
| O=C(Nc1ccc(Cl)c(Cl)c1)c1ccco1 | 109 % of control |
| C/C(CCl)=N\Nc1ccc([N+](=O)[O-])cc1[N+](=O)[O-] | 101 % of control |
| CSc1nc(N)cc(OCc2ccccc2)n1 | 97 % of control |
| CCCCCCCCP(=S)(CCCCCC)CCCCCC | 104 % of control |
| O=C(NC(=S)Nc1cccc2ccc(O)cc12)c1ccc(Cl)cc1Cl | 101 % of control |
| CC(C)(CCCC(C)(C)[N+](=O)[O-])[N+](=O)[O-] | 101 % of control |
| C=CCCC(=O)O | 100 % of control |
| CC1=C(C)CC(/C(=N\Nc2ccc([N+](=O)[O-])cc2[N+](=O)[O-])c2ccccc2)CC1 (stereo not given) | 89 % of control |
| O=C(Nc1ccc([N+](=O)[O-])cc1Cl)OCCCl | 94 % of control |
| O=c1[nH]c(Cc2ccccc2)c(N=Nc2ccccc2)c(=O)[nH]1 | 93 % of control |
| CCOc1ccc(C2(C)CC(=O)NN2)c(O)c1 (stereo not given) | 101 % of control |
| Cc1ccc(S(=O)(=O)OCC(c2ccccc2)C(F)(F)F)cc1 (stereo not given) | 94 % of control |
| CCCCCCCCCC(CC)(CCCCCCC)CCCCCCCC (stereo not given) | 103 % of control |
